# TEST: NCI Yeast Anticancer Drug Screen. Data for the cln2 rad14 strain (AID 165);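 further: 0% = growth equal to vehicle treated cultures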
# APPLIED_CONDITIONS: S. cerevisiae cln2 rad14 strain, at 50.0 µM (retest, dose inferred, filed as 5.0), hits give high values
About 79,000 compounds went through this panel and 15% of them were active in at least one assay; those are over-represented in the sample as a whole.
MEASURED_PROPERTY: growth inhibition (%)
I only need the number, in %, no unit after it.

QUERY: growth inhibition for C=C(C)C1CC/C(C)=C/CCC2(C)OC2CC/C(CO)=C\C1O (stereo not drawn) ?
RESULT: 85

QUERY: What does the data say about its growth inhibition? Entry: "COC(=O)[C@@]12OC[C@]34[C@H]([C@@H](O)[C@@H]1O)[C@@]1(C)CC(=O)C(OC(=O)CC(=O)OC5=C(C)[C@@H]6C[C@H]7OC(=O)[C@H](OC(=O)/C=C(\C)C(C)C)[C@H]8[C@]9(C(=O)OC)OC[C@]78[C@H]([C@@H](O)[C@@H]9O)[C@@]6(C)CC5=O)=C(C)[C@@H]1C[C@H]3OC(=O)[C@H](OC(=O)/C=C(\C)C(C)C)[C@@H]24"
RESULT: 98

QUERY: # growth inhibition lookup, item "CC(C)OC(=O)c1ccc(CCC2=CC(=O)C=CC2=O)cc1"
RESULT: 91

QUERY: Data request, read-out growth inhibition, for "CCOc1ccc(C=Nc2ccc(/C=C(\C)C(=O)OCCC(C)C)cc2)cc1"
RESULT: 98

QUERY: GET /values?readout=growth inhibition&item= CC1(C)c2ccccc2-c2nc3ccccc3cc2C1Br (stereo not drawn)
RESULT: 4

QUERY: // growth inhibition lookup, key: "CCc1ccccc1NC1=C(Cl)C(=O)c2ccccc2C1=O"
RESULT: 99

QUERY: Using the record for "O=S(=O)(Nc1ccccc1-c1ccc(Cl)cc1)c1ccccc1" , report its growth inhibition.
RESULT: 95

QUERY: # growth inhibition lookup, item "CSc1nnc(CCC(=O)Nc2c(C)cccc2C(C)(C)C)o1"
RESULT: 7
